The values you see were collected from PubChem BioAssay AID328.

system: BDF1 mice, P388 leukemia ip, median survival T/C; assay: NCI In Vivo Anticancer Drug Screen. Data for tumor model P388 Leukemia (intraperitoneal) in B6D2F1 (BDF1) mice; settings: endpoint: median survival time; dose: 150.0 mg/kg/injection; schedule: Q01DX009 (ip); vehicle: saline with Tween-80
Toxic doses and inconclusive results are not listed. How the source made its calls: active means survival T/C of 150% or more; inactive means T/C below 125% in these data.
Classes used: active, inactive

CCCC(=O)Oc1ccc(/C=N/NC(N)=S)nc1: active
COC(=O)c1ccc(COc2ccc([N+](=O)[O-])cc2Cl)cc1: inactive
CN=C1c2ccccc2C2(c3ccccc3)C1N2C (configuration not stated): inactive
CC(=O)C/C(C)=N\NC(=S)SCc1ccccc1: inactive
CC(=O)OCC(OC(C)=O)C(OC(C)=O)C(OC(C)=O)C(C#N)OC(C)=O (configuration not stated): inactive
CCCCCC(=O)O[C@]1(C(C)=O)CC[C@H]2[C@@H]3CCC4=CC(=O)CC[C@]4(C)[C@H]3CC[C@@]21C: inactive
Cc1cc(=O)[nH]c2c1CCCC2: inactive

====

tested on: BDF1 mice, P388 leukemia ip, median survival T/C; experiment: NCI In Vivo Anticancer Drug Screen. Data for tumor model P388 Leukemia (intraperitoneal) in B6D2F1 (BDF1) mice; settings: endpoint: median survival time; dose: 12.5 mg/kg/injection; schedule: Q01DX009 (ip); vehicle: Klucel (hydroxypropylcellulose) (HPC)
Inconclusive results and toxic doses are left out. The calls were made as follows: active = survival T/C of 150% or more; inactive = T/C below 125% in these data.
Classes used: active, inactive

C[P+](Cc1ccc([N+](=O)[O-])cc1)(c1ccccc1)c1ccccc1: inactive
Cc1onc(-c2c(Cl)cccc2Cl)c1C(=O)Nc1ccccc1CC1c2ccccc2CCN1C (stereo unspecified): inactive
CCOC(=O)C(Cc1ccc(N(CCCl)CCCl)cc1)NP1(=O)NCCCO1 (stereo unspecified): active
COc1cc2c(cc1OC)-c1cc3cc(OC)c(OC)cc3c(C)[n+]1CC2 (tested in a mixture with another compound): inactive
CC(C)(C#N)N=NC(C)(C)C#N: inactive
C[n+]1ccc(Nc2ccc(NC(=O)c3ccc(C(=O)Nc4ccc(Nc5cc[n+](C)c(N)n5)cc4)cc3)cc2)nc1N: active
Cc1nc2ccccc2nc1CBr: inactive
Cc1ccc([N+](=O)[O-])cc1N=C=O: inactive
Cc1n[nH]c(=O)[nH]c1=O: inactive
C=[CH][Sn][CH2]CCC: inactive
O=[N+]([O-])c1cnc2ccnn2c1: inactive

====

test system: BDF1 mice, P388 leukemia ip, median survival T/C; experiment: NCI In Vivo Anticancer Drug Screen. Data for tumor model P388 Leukemia (intraperitoneal) in B6D2F1 (BDF1) mice; details: endpoint: median survival time; dose: 100.0 mg/kg/injection; schedule: Q01DX009 (ip); vehicle: other; higher = longer survival
Inconclusive results and toxic doses are left out.
propertyLabel: T/C

CCCCCCCCCCC(=O)CCCCC: 90 % of control
CC(C)CSP(=S)(c1cc(Cl)ccc1Cl)c1cc(Cl)ccc1Cl: 101 % of control
CCCCCCCCCC(=O)CCCCCCC: 100 % of control
CC(=O)c1cnn(-c2ccccc2)c1C: 105 % of control
CCCCOC(=O)c1cccc(C(=O)OCCCC)c1Sc1ccccc1: 100 % of control
OCC1(O)CC(O)C(O)(CO)CC1O (configuration not stated): 95 % of control
N[C@H](C(=O)O)[C@H]1ON=C(Cl)[C@@H]1O: 170 % of control

====

Tested on: BDF1 mice, P388 leukemia ip, median survival T/C
Test: NCI In Vivo Anticancer Drug Screen. Data for tumor model P388 Leukemia (intraperitoneal) in B6D2F1 (BDF1) mice
Settings: endpoint: median survival time; dose: 50.0 mg/kg/injection; schedule: Q01DX009 (ip); vehicle: saline with Tween-80; higher = longer survival
Description: The antitumor activity of compounds was measured in mice bearing transplantable tumors. Survival or tumor size were measured and the results are expressed as the measurement made in the treated group (T) divided by the measurement made in the vehicle treated control group (C). The tumor model used in this assay is P388 Leukemia (intraperitoneal) in B6D2F1 (BDF1) mice
Inconclusive results and toxic doses are left out.
propertyLabel: T/C

CC1CCN(SSc2nc3ccccc3s2)CC1: 110 % of control
N#C/C(=C\C=C\c1ccccc1)C(N)=O: 110 % of control
CCc1ccc2[nH]nc(CCC(=O)O)c(=O)c2c1: 117 % of control
N#CC1C=Cc2ccccc2N1C(=O)Oc1ccccc1 (stereo not given): 110 % of control
CCCCCSC(=S)N(C)NC(=O)c1ccccn1: 103 % of control
Cc1cccc(C(=O)/C=C/c2ccc(OCc3ccccc3)cc2)c1: 91 % of control
C=CCCCCCCCCC(=O)NCCN1CCOCC1: 104 % of control
O=C(CNC(=O)Nc1n[nH]c(=S)s1)N/N=C/c1ccc2c(c1)OCO2: 116 % of control
CN(C)c1ccc(-c2c3ccccc3nc3ccccc23)cc1: 107 % of control
N/C(=N\[N+](=O)[O-])N(CCCCl)N=O: 107 % of control
Nc1nc(N)c2cc(Sc3ccc4ccccc4c3)ccc2n1: 113 % of control
COc1ccc(N=Cc2ccc3c(c2)OCO3)cc1: 98 % of control
CCCCCCCCC(CO)CO: 100 % of control
CC(=O)OCC(=O)[C@@]1(O)CC[C@H]2[C@@H]3CCC4=CC(=O)C=C[C@]4(C)[C@H]3C(=O)C[C@@]21C: 122 % of control
CC1(C)CC(=O)C2=C(C1)OC1=C(C(=O)CC(C)(C)C1)C2c1cccc([N+](=O)[O-])c1: 104 % of control
c1ccn2c(CSCc3nnc4ccccn34)nnc2c1: 100 % of control
CC(c1ccccc1)(c1ccccc1)c1ccccc1: 101 % of control
Nc1ccc(N=Nc2ccccc2)c(N)c1: 99 % of control
O=C1NC(=O)C(c2ccc(C(F)(F)F)cc2)(c2ccc(C(F)(F)F)cc2)N1: 113 % of control
OC1CCCC2CCCNC12 (stereo not given) (tested in a mixture with another compound): 103 % of control
CCOC(=O)Cn1nc(-c2ccc([N+](=O)[O-])o2)oc1=O: 97 % of control
N#Cc1c(SCc2ccc(Cl)cc2)nsc1Nc1ccc(Cl)cc1: 108 % of control
Cn1nc(-c2ccccc2)nc1[N+](=O)[O-]: 93 % of control
CCCNC1(C(N)=O)CCN(Cc2ccccc2)CC1: 111 % of control
O=C(O)c1c[nH]n2c(=S)ncnc12: 93 % of control

====

T/C values for the compounds below.
test system: BDF1 mice, P388 leukemia ip, median survival T/C; test: NCI In Vivo Anticancer Drug Screen. Data for tumor model P388 Leukemia (intraperitoneal) in B6D2F1 (BDF1) mice; details: endpoint: median survival time; dose: 12.5 mg/kg/injection; schedule: Q01DX009 (ip); vehicle: saline with Tween-80; higher = longer survival
Inconclusive results and toxic doses are left out.
propertyLabel: T/C

COC1C(O)CC(=O)OC(C)C/C=C/C=C/C(OC2CCC(N(C)C)C(C)O2)C(C)CC(CC=O)C1OC1OC(C)C(OC2CC(C)(O)C(O)C(C)O2)C(N(C)C)C1O (stereo unspecified): 94 % of control
CCC[CH2][Sn]([CH2]CCC)([O]C(C)=O)[O]C(C)=O: 86 % of control
CCOC(=O)/C=C(/C)Sc1cc(O)c2ccccc2c1O: 114 % of control
O=C(c1ccccc1)C12CC3CC(CC(C3)C1)C2: 90 % of control
CCCCN(CCCC)CC(O)c1cc(Cl)cc2cccnc12 (stereo unspecified): 108 % of control
CCOC(=O)C1Cc2c([nH]c(=O)[nH]c2=O)OC1c1cccc(Cl)c1 (stereo unspecified): 93 % of control

====

system: BDF1 mice, P388 leukemia ip, median survival T/C; experiment: NCI In Vivo Anticancer Drug Screen. Data for tumor model P388 Leukemia (intraperitoneal) in B6D2F1 (BDF1) mice; conditions: endpoint: median survival time; dose: 25.0 mg/kg/injection; schedule: Q04DX003 (ip); vehicle: saline
Toxic doses and inconclusive results are not listed. Rule for the calls: active = survival T/C of 150% or more; inactive = T/C below 125% in these data.
Classes used: active, inactive

CCOC(=O)NP(=O)(N1CC1)N1CC1: active
Cc1ccc(S(=O)(=O)N(CCC(=N)N)C(C)C)cc1: inactive
CCOC(=O)Nc1cc(NC(C)CCCN(CC)CC)c2ncc(-c3ccccc3)nc2n1 (stereo unspecified) (tested in a mixture with another compound): inactive
COc1ccc2c(c1)CCNC2CCO (stereo unspecified): inactive
O=[N+]([O-])c1ccc(-[n+]2nc(-c3ccccc3)nn2-c2ccc(I)cc2)cc1: inactive
O=C(Cn1ccc(=O)[nH]c1=O)c1ccc([N+](=O)[O-])o1: inactive

====

system: BDF1 mice, P388 leukemia ip, median survival T/C; test: NCI In Vivo Anticancer Drug Screen. Data for tumor model P388 Leukemia (intraperitoneal) in B6D2F1 (BDF1) mice; conditions: endpoint: median survival time; dose: 200.0 mg/kg/injection; schedule: Q01DX009 (ip); vehicle: water
Toxic doses and inconclusive results are not listed. Rule for the calls: active = survival T/C of 150% or more; inactive = T/C below 125% in these data.
Classes used: yes (1) for active, no (0) for inactive

COC(=O)C(CO)NC(=O)OCc1ccccc1 (configuration not stated): no (0)
Cc1nc(C(=O)O)c(=O)[nH]c1C: no (0)
Nc1ncnc2nc[nH]c12.[Cl][Pt][Cl]: no (0)
O=C(O)c1c2c(nc3ccccc13)Cc1ccccc1-2: yes (1)
Clc1nc2nc(Cl)n(Cl)c2nc1Cl: no (0)
CCOC(=O)Nc1nc(NC(=O)OCC)c(Cl)nc1Cl: no (0)
COC1OCC(N=[N+]=[N-])C2OC12 (configuration not stated): no (0)
